Where do these numbers come from? They come from ChEMBL document CHEMBL5030525.

- System: NCI-H1975
- EXPERIMENTAL DETAILS: Antiproliferative activity against human NCI-H1975 cells assessed as inhibition of cell growth measured after 72 hrs by MTT assay
- Assay type: functional, cell-based
- CONDITIONS USED: NCI-H1975, 72 h
Could you mark each record rule met if its IC50 falls strictly under 20 µM, and rule not met if it equals or exceeds it?

// query Hi there! Is IC50 for FC(F)(F)c1ccc(CSc2nc(SC3=NCCS3)cc(C(F)(F)F)n2)cc1 below 20 µM, do you know?
// result rule not met

// query Find out if reported IC50 for C=CC(=O)Nc1cccc(Nc2cc(C(F)(F)F)nc(SCc3ccc(Cl)cc3Cl)n2)c1 is less than 20 µM
// result rule met

// query Strictly below 20 µM: is that where IC50 of Fc1ccc(Nc2cc(C(F)(F)F)nc(SCc3ccc(C(F)(F)F)cc3)n2)cc1 sits?
// result rule met

// query I'd appreciate it if you could check whether C=CC(=O)Nc1cccc(Nc2cc(C(F)(F)F)nc(SCC3CCCO3)n2)c1 (stereo not drawn) has IC50 smaller than 20 µM.
// result rule met

// query Bench note: check whether Cc1ccc(Nc2cc(C(F)(F)F)nc(SCc3ccc(C(F)(F)F)cc3)n2)cc1 shows IC50 below 20 µM
// result rule not met

// query Just wondering, is IC50 of C=CC(=O)Nc1cccc(Nc2cc(C(F)(F)F)nc(SCc3ccccc3)n2)c1 below 20 µM?
// result rule not met

// query hey, is IC50 for COc1cc(Nc2cc(C(F)(F)F)nc(SCc3ccc(C(F)(F)F)cc3)n2)cc(OC)c1OC lower than 20 µM or not?
// result rule met

// query Hello, I'm reviewing records and need to know if IC50 of C=CC(=O)Nc1cccc(Nc2cc(C(F)(F)F)nc(SCC3CCCCC3)n2)c1 is below 20 µM. Could you check?
// result rule met

// query Is the reported IC50 for C=CC(=O)Nc1cccc(Nc2cc(C(F)(F)F)nc(SCc3cccc(OC)c3)n2)c1 strictly below 20 µM?
// result rule met

// query Strictly below 20 µM: is that where IC50 of C=CC(=O)Nc1cccc(Nc2cc(C(F)(F)F)nc(SCc3ccc(C)cc3)n2)c1 sits?
// result rule met

// query Decide: IC50 of C=CC(=O)Nc1cccc(Nc2cc(C(F)(F)F)nc(SCc3ccccc3F)n2)c1 strictly below 20 µM?
// result rule met

// query Check if IC50 falls below 20 µM for Nc1cccc(Nc2cc(C(F)(F)F)nc(SCc3ccc(C(F)(F)F)cc3)n2)c1 .
// result rule not met

// query Is IC50 strictly under 20 µM for the entry FC(F)(F)c1ccc(CSc2nc(Sc3ncc(-c4ccncc4)s3)cc(C(F)(F)F)n2)cc1 ?
// result rule met

// query Lab note: confirm whether the reported IC50 for this compound is below 20 µM, equality not counting. compound: C=CC(=O)Nc1cccc(Nc2cc(C(F)(F)F)nc(SCc3ccccc3C)n2)c1
// result rule met

// query Lab log: compare recorded IC50 with 20 µM; is it strictly lower for FC(F)(F)c1ccc(CSc2nc(N3CCN(c4ncccn4)CC3)cc(C(F)(F)F)n2)cc1 ?
// result rule met

// query Here's an entry: Cc1csc(Sc2cc(C(F)(F)F)nc(SCc3ccc(C(F)(F)F)cc3)n2)n1 . Is its IC50 below 20 µM?
// result rule met

// query API: query returns whether the compound falls strictly under 20 µM in IC50. Query: C=CC(=O)Nc1cccc(Nc2cc(C(F)(F)F)nc(SCc3ccc(OC)cc3)n2)c1
// result rule met

// query Answer whether the compound C=CC(=O)Nc1cccc(Nc2cc(C(F)(F)F)nc(SCc3ccc(C(F)(F)F)cc3)n2)c1 has IC50 strictly less than 20 µM
// result rule met

// query Does the reported IC50 of C=CC(=O)Nc1cccc(Nc2cc(C(F)(F)F)nc(SCc3ccc(Br)cc3)n2)c1 stay below 20 µM?
// result rule met

// query is_below(IC50, 20 µM) for Cc1nnc(Sc2cc(C(F)(F)F)nc(SCc3ccc(C(F)(F)F)cc3)n2)s1 ?
// result rule met

// query Record CN1CCN(c2cc(C(F)(F)F)nc(SCc3ccc(C(F)(F)F)cc3)n2)CC1 : is its IC50 strictly below 20 µM?
// result rule not met

// query Strictly below 20 µM in IC50? C=CC(=O)Nc1cccc(Nc2cc(C(F)(F)F)nc(SCc3c(Cl)cccc3Cl)n2)c1
// result rule met

// query Lab note: confirm whether the reported IC50 for this compound is below 20 µM, equality not counting. compound: C=CC(=O)Nc1cccc(Nc2cc(C(F)(F)F)nc(SCc3cccc(F)c3)n2)c1
// result rule met

// query Lab note: IC50 threshold 20 µM. Does this compound come in strictly under it? Fc1ccc(Nc2cc(C(F)(F)F)nc(SCc3ccc(C(F)(F)F)cc3)n2)cc1Cl
// result rule not met

// query Please state whether IC50 is below 20 µM for C=CC(=O)Nc1cccc(Nc2cc(C(F)(F)F)nc(SCc3cccc(C)c3)n2)c1
// result rule met

// query Confirm or reject: IC50 of CC(C)(C)OC(=O)N1CCN(c2cc(C(F)(F)F)nc(SCc3ccc(C(F)(F)F)cc3)n2)CC1 lies strictly below 20 µM
// result rule not met

// query Strictly below 20 µM in IC50? CCN1CCN(c2cc(C(F)(F)F)nc(SCc3ccc(C(F)(F)F)cc3)n2)CC1
// result rule met

// query Given COc1ccc(Nc2cc(C(F)(F)F)nc(SCc3ccc(C(F)(F)F)cc3)n2)cn1 , is recorded IC50 strictly lower than 20 µM?
// result rule met
